Measured interaction score, listed per entry for reference.
Molecular target: T1, 4H3843-bH
T1 chain: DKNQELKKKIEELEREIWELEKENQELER
Assay: two-hybrid library CCNG1;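 further: natural log of median RNA to DNA barcode read ratio; higher means stronger binding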
The answer should be a number; do not append a unit.

Answered cases to consult:
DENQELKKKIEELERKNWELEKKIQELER [4H1845-bH] :: -0.224
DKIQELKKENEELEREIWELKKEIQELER [4H2697-bH] :: -0.103
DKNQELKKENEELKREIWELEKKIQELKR [4H3782-bH] :: 0.943
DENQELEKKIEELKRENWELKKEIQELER [4H1369-bH] :: -0.198
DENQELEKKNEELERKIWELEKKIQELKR [4H1446-bH] :: 1.3
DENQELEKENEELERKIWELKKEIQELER [4H1193-bH] :: 0.181

According to the records, this binder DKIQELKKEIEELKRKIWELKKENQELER [4H2667-bH] displays interaction score of 1.84
